target: RIT1; assay: pooled miR-30 sensor sort-seq; sequence = guide strand; conditions: shRNA; note: reference of the scale not given here
recorded metric: sensor-assay potency score (higher = more potent)

INSERT INTO results (residue_sequence, measured_number) VALUES
  ('TAGCTGTTTGAGGTCTGACTTG', -0.94),
  ('TCGGACTCGATAAATAAGCTGT', -0.314),
  ('TAGCCTCTTCCATACACTGTTT', -0.898),
  ('TTAGCCTCTTCCATACACTGTT', -0.476),
  ('TACACCACCAGCACCCAGCATC', -0.912),
  ('TTATAAGCATCTTCAATGGTGG', -0.101),
  ('TAAACTCTGCCTGTCCAGCTGT', 0.108),
  ('TTGGTGACCTGTCTTAGCTGTT', -0.52);

====

// reported sensor-assay potency score (higher = more potent) for each item listed
molecular target: CD8B; experiment: pooled miR-30 sensor sort-seq; sequence = guide strand; details: shRNA
recorded metric: sensor-assay potency score (higher = more potent)

INSERT INTO measurements (residue_sequence, measured_number) VALUES
  ('TAATCTTAGTTGTTTCATGAAA', -1.22),
  ('TATTTGTACAACTAAGACATTT', -1.4),
  ('TATCTTCTCCTGTTCCACCTCT', 0.0744),
  ('TTTAGCCTCGCAGGACAGCATC', -1.65),
  ('TACTGAGGGAGATTTTAGCCTC', -0.613),
  ('TAACCGGCACACTCTCTTCTTG', -0.762),
  ('TTCTCCAGTGGATGTAATCTTA', -0.513),
  ('TTGCATCCCGAAACACAGCTAT', -0.634),
  ('TTTTTCCACATCGTGCTCGTTA', -0.473),
  ('AAGGAAATCAACCACACTCAGC', -1.28),
  ('AAACACAGCTATCTTCTCCTGT', 0.733),
  ('TGTACAACTAAGACATTTGTAT', 0.113),
  ('AACACAGCTATCTTCTCCTGTT', -0.341),
  ('TTGGTTTGCACCTTTATGTATG', -1.15);

====

target: MALL; assay: pooled miR-30 sensor sort-seq; sequence = guide strand; details: shRNA
recorded metric: sensor-assay potency score (higher = more potent)

INSERT INTO results (residue_sequence, tested_on, measured_number) VALUES
  ('TAAGACAACAGGAACATCAAGG', 'MALL', -0.729),
  ('AGTTTCTCAGAAACAATCGTGG', 'MALL', -1.29),
  ('TACAGGATGCCAGTGGTCCCGT', 'MALL', -0.996),
  ('TTAATGTAGTAAATTCTTGGGT', 'MALL', -0.194),
  ('TTCTCAGAAACAATCGTGGCAT', 'MALL', 0.00713),
  ('AATTAATGTAGTAAATTCTTGG', 'MALL', -0.359),
  ('TAATGTAGTAAATTCTTGGGTC', 'MALL', 0.801),
  ('TAAATGTCCAAACAAAGTGTGG', 'MALL', -1.11);

====

target: TGFB1I1; assay: pooled miR-30 sensor sort-seq; sequence = guide strand; settings: shRNA
Mark class 0 for sensor-assay potency score (higher = more potent) values under -0.8, and class 1 for everything at or above.

INSERT INTO assay_data (residue_sequence, classification) VALUES
  ('TCTTTTCTTATCTTCAGACTGG', 'class 1'),
  ('TTCCTGAAGCAACCGATCTAGC', 'class 0'),
  ('TTTATTGCAGGAGCCACAGAGG', 'class 0'),
  ('TTGTCTGTGTGCAATCCACTTT', 'class 1'),
  ('TAAGTTCCTGAAGCAACCGATC', 'class 0'),
  ('TGAGACATGATTTCATCTGTGA', 'class 1'),
  ('TTTGTGGAGCTCACCACCGGTG', 'class 0');
